Please find below pIC50 measurements for Collagenase 3 (Homo sapiens), combined from several publications.
Interpret pIC50 as the negative base-10 log of the concentration measured in mol/L.

INSERT INTO assay_data (compound, targetsystem, resultvalue) VALUES
  ('CNC(=O)[C@@H](NC(=O)c1ccc(-c2ccc(OCc3cccc(C)c3)cn2)o1)C1CCCCC1', 'Collagenase 3 (Homo sapiens)', 7.44),
  ('CC(C)(Cc1ccc(C(F)(F)F)cc1)C(=O)NC[C@@]1(C2CC2)NC(=O)NC1=O', 'Collagenase 3 (Homo sapiens)', 5.32),
  ('CNC(=O)[C@@H](NC(=O)c1ccc(-c2ccc(C#N)cn2)o1)C1CCCCC1', 'Collagenase 3 (Homo sapiens)', 7.16);

State the recorded pIC50 for this entry: COc1ccc(NC(=O)CC2Sc3ccccc3N(CC(=O)NO)C2=O)cc1 (stereo not drawn) 6.93

Item: `CNC(=O)[C@@H](NC(=O)c1ccc(-c2cccc(CNC(=O)c3ccoc3C)c2)o1)C1CCCCC1` 6.48

Param item: `CCc1cccc(S(=O)(=O)N(CCC(C)C)[C@@H](C(=O)NO)C(C)(C)C)c1` 6.30

Try this compound next: `CNC(=O)[C@@H](NC(=O)c1ccc(-c2cccc(CNC(=O)c3cccc(C(C)C)c3)c2)o1)C(C)C` 6.80

What would you report for `COc1cccc(S(=O)(=O)N(Cc2ccccc2)[C@@H](C(=O)NO)C(C)(C)C)c1` ? 6.10

And what about the compound CNC(=O)[C@@H](NC(=O)c1ccc(-c2cccc(CNC(=O)C3CCCN3)c2)o1)C(C)C (stereo partly drawn) ? 6.52

Note, next up: Cc1ccc2nnn(C[C@@H]3CC[C@H](C(=O)c4ccc(OCCC5CCOCC5)cc4)[C@H]3C(=O)O)c(=O)c2c1 (racemic) 6.23

And then CC(C)CC(C(=O)NO)N1C(=O)CSC1c1ccc(Cl)cc1 (stereo not drawn) , what is it? 7.25

How about this compound: `N#Cc1ccc(-c2ccc(C(=O)N[C@H](C(=O)NCCO)C3CCCCC3)o2)cc1` 7.00

Another: `CC#CCOc1ccc(SCC2(C(=O)NO)CCN(C(=O)OC(C)(C)C)CC2)cc1` 5.54

Quick one: `COc1ccc(/C=C2\Sc3cc(Cl)ccc3N(CC(=O)NO)C2=O)cc1` 7.46

Let us now turn to `O=C(NO)C1(S(=O)(=O)c2ccc(Oc3ccc(Cl)cc3)cc2)CCN(Cc2ccccc2)CC1` 9.05

Now the compound `CNC(=O)[C@@H](NC(=O)c1ccc(-c2ccc3cc(C(=O)N4CCS(=O)(=O)CC4)[nH]c3c2)o1)C(C)C` 6.70

Would you mind doing `C#CCOc1ccc(S(=O)(=O)C2(C(=O)NO)CCN(Cc3ccc(Cl)cc3)CC2)cc1` as well? 8.33

Another compound to look at: `CCOc1cccc(S(=O)(=O)N(CCC(C)C)[C@@H](C(=O)NO)C(C)C)c1` 5.61

----------
Record: compiled IC50 on Collagenase 3 (Homo sapiens) from multiple reports.

Worked cases, answers included:
INSERT INTO assay_data (compound, resultvalue) VALUES
  ('CCCCCCCCC=CCCCCCCCCN1CC(C(=O)O)N(S(=O)(=O)c2ccc(-c3ccc(Br)cc3)cc2)CC1=O (centres unmarked)', '> 10 µM'),
  ('CC(C(=O)Nc1cc(C(=O)NCc2ccc(F)cc2)ncn1)c1ccc(-c2nnn[nH]2)cc1 (centres unmarked)', '> 0.005 µM');

Could you share what IC50 was measured for `COC(=O)[C@@H]1C[C@@H](O)CN1C(=O)c1c[nH]c2c(C(=O)NCc3ccc4c(c3)NC(=O)CO4)ncnc12` , tested on Collagenase 3 (Homo sapiens)? 0.101 to 20 µM

Lookup `Cc1cc(COc2ccc(S(=O)(=O)N[C@@H]3CCN(S(=O)(=O)C(C)C)C[C@]3(C)C(=O)NO)cc2)c2ccccc2n1` > 10 µM

Same again, this time with `O=C1COc2ccc(CNC(=O)c3nc4sc5c(c4c(=O)[nH]3)CCC3(CCN(C(=O)OCc4ccccc4)CC3)C5)cc2N1` 0.1 to 20 µM
